assay: Acute toxicity, mortality within 24 hours (oral, mice); format: in vivo; details: mouse, in vivo, po, 100 mg/kg

- Compound: "Cc1cc(-c2ccccc2)nnc1NCCN1CCOCC1 [Minaprine, reference compound]"
  mortality / %: 20

----------
assay: Acute toxicity, mortality within 24 hours (oral, mice); assay type: in vivo; details: mouse, in vivo; mice, oral, 1000 mg/kg, 24 hours; read-out: p. cent of mortality at 1000 mg/kg
# mortality at 24 h per entry

- Smiles data: "Cc1cc(-c2ccccc2)nnc1NCCCCO"
  mortality at 24 h [%]: 100
- Smiles data: "COCCNc1nnc(-c2ccccc2)cc1C"
  mortality at 24 h [%]: 100
- Smiles data: "Cc1cc(-c2ccccc2)nnc1NCCO"
  mortality at 24 h [%]: 0
- Smiles data: "COCCNc1nnc(-c2ccccc2)cc1-c1ccccc1"
  mortality at 24 h [%]: 20
- Smiles data: "CCCCNc1nnc(-c2ccccc2)cc1C"
  mortality at 24 h [%]: 0
